Glutamate receptor ionotropic, NMDA 1 (Rattus norvegicus) data, read-out AC50; further: assay procedure not described here
metric: AC50

compound	recordedResult
CC(=O)OCC(=O)[C@@]12N=C(C)O[C@@H]1C[C@H]1[C@@H]3CCC4=CC(=O)C=C[C@]4(C)[C@H]3[C@@H](O)C[C@@]12C [DEFLAZACORT]	> 30 µM
COc1cc2c(N)nc(N3CCN(C(=O)OCC(C)(C)O)CC3)nc2c(OC)c1OC [TRIMAZOSIN]	> 30 µM
O=C1Nc2ccc(Cl)cc2[C@@](C#CC2CC2)(C(F)(F)F)O1 [EFAVIRENZ]	> 10 µM
C[C@H](N)[C@H](O)c1cccc(O)c1 [METARAMINOL]	> 10 µM
C[C@](N)(Cc1ccc(O)c(O)c1)C(=O)O [METHYLDOPA]	> 10 µM
CN1C(=O)C(O)N=C(c2ccccc2Cl)c2cc(Cl)ccc21 (centres undefined) [LORMETAZEPAM]	> 30 µM
Cc1ccc(-n2nccn2)c(C(=O)N2CCN(c3nc4cc(Cl)ccc4o3)CC[C@H]2C)c1 [SUVOREXANT]	> 30 µM
N#Cc1ccc([C@H]2CCc3cncn32)c(F)c1 [OSILODROSTAT]	> 10 µM
C=CCN1C[C@H](C(=O)N(CCCN(C)C)C(=O)NCC)C[C@@H]2c3cccc4[nH]cc(c34)C[C@H]21 [CABERGOLINE]	> 10 µM
O=P1(NCCCl)OCCCN1CCCl (centres undefined) [IFOSFAMIDE]	> 30 µM
O=C(O)CCCCCCCC(=O)O [AZELAIC ACID]	> 10 µM
COc1ccccc1OCCNCC(O)c1ccc(C)c(S(N)(=O)=O)c1 (centres undefined) [AMOSULALOL]	> 30 µM
Cc1cccc(C(C)c2cnc[nH]2)c1C (centres undefined) [MEDETOMIDINE]	> 10 µM
CCN(CC)C(=O)N[C@H]1C[C@@H]2c3cccc4[nH]cc(c34)C[C@H]2N(C)C1 [TERGURIDE]	> 30 µM
CCCCN1C[C@H](O)[C@@H](O)[C@H](O)[C@H]1CO	> 30 µM
CC(C)C(=O)c1c(C(C)C)nn2ccccc12 [IBUDILAST]	> 30 µM
O=[N+]([O-])O[C@@H]1CO[C@H]2[C@@H]1OC[C@@H]2O [ISOSORBIDE MONONITRATE]	> 10 µM
CN(C)CC/C=C1\c2ccccc2CSc2ccccc21 [DOTHIEPIN]	> 30 µM
CC1(C)O[C@@H]2C[C@H]3[C@@H]4CCC5=CC(=O)C=C[C@]5(C)[C@H]4[C@@H](O)C[C@]3(C)[C@]2(C(=O)CO)O1 [DESONIDE]	> 10 µM

###

- measuredTarget: Voltage-dependent N-type calcium channel subunit alpha-1B (Rattus norvegicus, UniProt Q02294); further: assay procedure not described here
- Sequence (Q02294 whole entry): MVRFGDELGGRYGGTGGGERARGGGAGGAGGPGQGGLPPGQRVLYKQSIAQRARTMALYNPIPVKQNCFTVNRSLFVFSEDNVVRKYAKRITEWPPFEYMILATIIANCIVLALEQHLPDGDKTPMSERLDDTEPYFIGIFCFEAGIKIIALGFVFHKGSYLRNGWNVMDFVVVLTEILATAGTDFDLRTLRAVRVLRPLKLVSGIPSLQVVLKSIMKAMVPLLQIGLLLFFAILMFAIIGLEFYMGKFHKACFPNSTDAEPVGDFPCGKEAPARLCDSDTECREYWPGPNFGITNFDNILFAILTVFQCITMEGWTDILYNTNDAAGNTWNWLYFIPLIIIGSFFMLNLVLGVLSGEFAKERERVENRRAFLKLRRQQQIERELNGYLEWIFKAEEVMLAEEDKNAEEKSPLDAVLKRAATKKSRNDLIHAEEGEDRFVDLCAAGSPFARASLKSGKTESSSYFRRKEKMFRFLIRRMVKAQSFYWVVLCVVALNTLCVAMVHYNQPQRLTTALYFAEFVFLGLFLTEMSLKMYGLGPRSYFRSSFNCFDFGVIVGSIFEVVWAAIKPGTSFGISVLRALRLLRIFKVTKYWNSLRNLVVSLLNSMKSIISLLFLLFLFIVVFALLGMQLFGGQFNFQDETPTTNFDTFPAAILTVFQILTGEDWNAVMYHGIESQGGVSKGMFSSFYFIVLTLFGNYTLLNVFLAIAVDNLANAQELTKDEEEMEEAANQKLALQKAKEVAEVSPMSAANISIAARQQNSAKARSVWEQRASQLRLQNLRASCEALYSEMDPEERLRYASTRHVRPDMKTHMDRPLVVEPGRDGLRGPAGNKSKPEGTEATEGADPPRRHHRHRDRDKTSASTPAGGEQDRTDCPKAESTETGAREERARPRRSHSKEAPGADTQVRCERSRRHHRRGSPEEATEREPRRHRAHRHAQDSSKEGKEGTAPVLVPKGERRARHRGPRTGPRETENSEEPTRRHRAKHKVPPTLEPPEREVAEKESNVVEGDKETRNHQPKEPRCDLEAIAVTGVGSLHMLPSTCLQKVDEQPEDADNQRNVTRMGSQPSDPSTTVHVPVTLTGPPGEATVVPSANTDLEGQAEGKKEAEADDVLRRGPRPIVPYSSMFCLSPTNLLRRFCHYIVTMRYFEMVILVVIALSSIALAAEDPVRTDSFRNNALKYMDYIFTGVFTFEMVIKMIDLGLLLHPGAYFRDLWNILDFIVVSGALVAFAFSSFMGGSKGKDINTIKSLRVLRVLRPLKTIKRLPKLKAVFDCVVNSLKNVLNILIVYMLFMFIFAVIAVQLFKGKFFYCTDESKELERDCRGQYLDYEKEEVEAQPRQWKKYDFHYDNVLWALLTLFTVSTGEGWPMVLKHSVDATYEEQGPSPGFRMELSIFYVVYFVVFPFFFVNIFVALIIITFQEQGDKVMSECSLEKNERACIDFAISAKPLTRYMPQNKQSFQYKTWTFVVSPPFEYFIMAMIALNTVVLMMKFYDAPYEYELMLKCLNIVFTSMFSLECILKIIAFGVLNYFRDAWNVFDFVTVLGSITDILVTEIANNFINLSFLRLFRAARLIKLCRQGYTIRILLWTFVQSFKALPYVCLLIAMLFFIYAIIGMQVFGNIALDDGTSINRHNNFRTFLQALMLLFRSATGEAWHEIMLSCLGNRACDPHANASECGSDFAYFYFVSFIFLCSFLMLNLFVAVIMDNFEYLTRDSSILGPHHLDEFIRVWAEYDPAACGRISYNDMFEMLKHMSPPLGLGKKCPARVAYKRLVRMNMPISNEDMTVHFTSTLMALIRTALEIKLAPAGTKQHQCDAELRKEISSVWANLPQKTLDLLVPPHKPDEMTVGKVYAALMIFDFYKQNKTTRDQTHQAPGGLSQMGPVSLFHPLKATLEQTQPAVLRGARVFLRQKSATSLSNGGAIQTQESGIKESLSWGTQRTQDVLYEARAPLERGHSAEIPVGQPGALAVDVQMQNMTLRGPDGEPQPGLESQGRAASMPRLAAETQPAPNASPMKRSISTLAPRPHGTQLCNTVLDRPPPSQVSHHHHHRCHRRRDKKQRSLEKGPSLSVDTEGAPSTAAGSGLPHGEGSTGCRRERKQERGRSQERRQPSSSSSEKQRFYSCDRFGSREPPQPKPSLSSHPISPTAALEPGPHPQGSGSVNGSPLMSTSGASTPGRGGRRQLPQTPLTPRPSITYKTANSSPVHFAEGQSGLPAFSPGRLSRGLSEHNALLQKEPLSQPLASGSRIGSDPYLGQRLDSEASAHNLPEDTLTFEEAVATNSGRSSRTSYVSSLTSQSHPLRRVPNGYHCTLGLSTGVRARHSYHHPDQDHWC
- Format: functional

compoundString	AC50
Cc1ccc(-c2cc(C(F)(F)F)nn2-c2ccc(S(N)(=O)=O)cc2)cc1	> 10 µM
CS(=O)(=O)c1ccc(C2=C(c3ccccc3)C(=O)OC2)cc1	> 10 µM
Clc1ccc2nsnc2c1NC1=NCCN1	> 10 µM
Cc1cn([C@H]2C=C[C@@H](CO)O2)c(=O)[nH]c1=O	> 10 µM
COc1cc2nc(N3CCN(C(=O)c4ccco4)CC3)nc(N)c2cc1OC	> 10 µM

###

Alpha-2A adrenergic receptor (Homo sapiens) data, read-out AC50; further: assay procedure not described here
Sequence (P08913 whole entry): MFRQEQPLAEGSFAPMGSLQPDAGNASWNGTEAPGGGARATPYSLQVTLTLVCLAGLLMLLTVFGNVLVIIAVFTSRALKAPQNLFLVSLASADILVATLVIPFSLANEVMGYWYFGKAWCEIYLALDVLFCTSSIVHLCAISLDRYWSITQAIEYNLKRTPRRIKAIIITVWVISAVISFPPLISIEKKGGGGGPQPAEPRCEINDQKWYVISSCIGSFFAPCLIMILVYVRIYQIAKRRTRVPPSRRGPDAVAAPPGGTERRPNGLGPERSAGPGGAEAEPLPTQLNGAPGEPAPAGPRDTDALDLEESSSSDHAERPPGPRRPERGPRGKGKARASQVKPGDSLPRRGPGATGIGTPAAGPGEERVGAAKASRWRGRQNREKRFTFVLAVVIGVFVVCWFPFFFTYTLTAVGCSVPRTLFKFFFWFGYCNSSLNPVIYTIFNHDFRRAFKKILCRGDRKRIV
metric: AC50 (µM)

compound	unitDescriptor	valueRelationSign	recordedResult
NC1CCN(c2c(F)cc3c(=O)c(C(=O)O)cn(C4CC4)c3c2Cl)C1 (stereo not given)	µM	>	30
CC[C@H]1CN2CCc3cc(OC)c(OC)cc3[C@@H]2C[C@@H]1C[C@H]1NCCc2cc(OC)c(OC)cc21	µM	=	0.09
CC(C)(S)[C@@H](N)C(=O)O	µM	>	30
O=[N+]([O-])O[C@@H]1CO[C@H]2[C@@H]1OC[C@@H]2O [ISOSORBIDE MONONITRATE]	µM	>	30
CCCCCCOc1nsnc1C1=CCCN(C)C1	µM	=	1.39

###

- measuredTarget: Histamine H3 receptor (Homo sapiens, UniProt Q9Y5N1); further: assay procedure not described here
- Sequence (Q9Y5N1 whole entry): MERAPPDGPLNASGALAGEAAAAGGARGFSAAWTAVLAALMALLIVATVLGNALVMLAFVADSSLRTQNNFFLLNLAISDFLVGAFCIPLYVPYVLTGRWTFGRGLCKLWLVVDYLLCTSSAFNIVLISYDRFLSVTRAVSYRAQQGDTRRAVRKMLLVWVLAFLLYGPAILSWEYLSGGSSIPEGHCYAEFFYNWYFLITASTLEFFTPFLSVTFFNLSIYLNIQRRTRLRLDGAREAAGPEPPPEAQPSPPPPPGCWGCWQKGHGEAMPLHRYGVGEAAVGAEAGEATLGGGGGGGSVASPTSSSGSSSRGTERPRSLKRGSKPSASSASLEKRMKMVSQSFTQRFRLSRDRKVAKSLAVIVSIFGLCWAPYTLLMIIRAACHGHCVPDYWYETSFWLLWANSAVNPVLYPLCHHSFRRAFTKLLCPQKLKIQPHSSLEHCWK

compound	AC50
CN(C)CCC(c1ccc(Cl)cc1)c1ccccn1 (stereo not given)	11 µM
COc1ccc(CCN(C)CCCC(C#N)(c2cc(OC)c(OC)c(OC)c2)C(C)C)cc1OC (stereo not given)	> 30 µM
Clc1ccc2nsnc2c1NC1=NCCN1	> 10 µM
CN(C)CCc1c[nH]c2ccc(C[C@H]3COC(=O)N3)cc12	> 30 µM
CCCCc1ncc(/C=C(\Cc2cccs2)C(=O)O)n1Cc1ccc(C(=O)O)cc1	> 10 µM
COc1ccccc1N1CCN(CCCNc2cc(=O)n(C)c(=O)n2C)CC1	> 30 µM
NCC(CC(=O)O)c1ccc(Cl)cc1 (stereo not given)	> 30 µM
CNC(C)CCC=C(C)C (stereo not given)	> 30 µM
CC[C@@H](C(N)=O)N1CCCC1=O	> 30 µM
CC(C[N+](C)(C)C)OC(N)=O (stereo not given)	> 10 µM
Nc1nc(/C(=C/CC(=O)O)C(=O)N[C@@H]2C(=O)N3C(C(=O)O)=CCS[C@H]23)cs1	> 30 µM
COc1cc2c(N)nc(N3CCN(C(=O)OCC(C)(C)O)CC3)nc2c(OC)c1OC	> 30 µM
COc1cc2nc(N3CCN(C(=O)c4ccco4)CC3)nc(N)c2cc1OC	> 10 µM
COc1ccc(CC(C)(C)NC[C@H](O)c2cc(O)cc3c2OCC(=O)N3)cc1	> 30 µM
CCOC(=O)[N-]c1cn(N2CCOCC2)n[o+]1	> 30 µM
c1cnc(N2CCN(Cc3ccc4c(c3)OCO4)CC2)nc1	> 30 µM
CC[C@@H]1C(=O)OC[C@@H]1Cc1cncn1C	> 10 µM
Nc1nc(NC2CC2)c2ncn([C@H]3C=C[C@@H](CO)C3)c2n1	> 30 µM
O=C1Nc2ccc(Cl)cc2[C@@](C#CC2CC2)(C(F)(F)F)O1	> 30 µM
CC(Oc1c(Cl)cccc1Cl)C1=NCCN1 (stereo not given)	> 30 µM

###

- measuredTarget: Growth hormone secretagogue receptor type 1 (Homo sapiens, UniProt Q92847); further: assay procedure not described here
- Sequence (Q92847 whole entry): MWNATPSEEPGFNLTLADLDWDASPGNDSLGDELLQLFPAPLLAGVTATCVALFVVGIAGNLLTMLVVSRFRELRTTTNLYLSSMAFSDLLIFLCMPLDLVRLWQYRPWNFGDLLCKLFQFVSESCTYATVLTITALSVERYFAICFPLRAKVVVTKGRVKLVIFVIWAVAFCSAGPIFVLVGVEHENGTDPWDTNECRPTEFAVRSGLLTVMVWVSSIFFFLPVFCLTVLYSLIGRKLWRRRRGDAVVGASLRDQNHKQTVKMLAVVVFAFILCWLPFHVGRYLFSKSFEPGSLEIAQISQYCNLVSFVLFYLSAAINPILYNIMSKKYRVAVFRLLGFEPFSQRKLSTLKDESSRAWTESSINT
Below, each entry is listed with its recorded AC50.

compound	AC50
CCCC1O[C@@H]2C[C@H]3[C@@H]4CCC5=CC(=O)C=C[C@]5(C)[C@H]4[C@@H](O)C[C@]3(C)[C@]2(C(=O)CO)O1 (stereo not given in full) [BUDESONIDE]	> 10 µM
CCN(CC)C(=O)N[C@H]1C[C@@H]2c3cccc4[nH]cc(c34)C[C@H]2N(C)C1 [TERGURIDE]	> 30 µM
CC(=O)Nc1ccc(O)cc1	> 30 µM
O=C(O)CCCCCCNC1c2ccccc2CCc2ccccc21	> 30 µM
CCCCCNC(=N)N/N=C/c1c[nH]c2ccc(OC)cc12	11.4 µM
CO[C@@H]1[C@@H](O[C@@H]2O[C@H](C)[C@@H](O[C@H]3C[C@@](C)(O)[C@@H](OC(=O)CC(C)C)[C@H](C)O3)[C@H](N(C)C)[C@H]2O)[C@@H](CC=O)C[C@@H](C)[C@@H](O)/C=C/C=C/C[C@@H](C)OC(=O)C[C@H]1OC(C)=O	> 10 µM
Cc1nc([N+](=O)[O-])cn1-c1ccc([N+](=O)[O-])cc1	> 30 µM
CC[C@@H](C(N)=O)N1CCCC1=O	> 30 µM
Cn1nnc2c(C(N)=O)ncn2c1=O [TEMOZOLOMIDE]	> 30 µM
CNC1Cc2ccccc2N(C)c2ccccc21 (stereo not given)	> 30 µM
C#C[C@]1(O)CC[C@H]2[C@@H]3CCc4cc(OC5CCCC5)ccc4[C@H]3CC[C@@]21C	> 10 µM
O=C(NCCNCC(O)COc1ccc(O)cc1)N1CCOCC1 (stereo not given)	> 30 µM
C[C@H]1CNCCc2ccc(Cl)cc21	> 30 µM
CN1C(=O)C(O)N=C(c2ccccc2)c2cc(Cl)ccc21 (stereo not given)	> 30 µM
CCN1CCN(C(=O)N[C@@H](C(=O)N[C@@H]2C(=O)N3C(C(=O)O)=C(CSc4nnnn4C)CS[C@H]23)c2ccc(O)cc2)C(=O)C1=O	> 30 µM
Cc1ccc(-n2nccn2)c(C(=O)N2CCN(c3nc4cc(Cl)ccc4o3)CC[C@H]2C)c1	> 30 µM
COc1ccccc1N1CCN(CCCNc2cc(=O)n(C)c(=O)n2C)CC1	> 30 µM
C[C@]1(O)CC[C@H]2[C@@H]3CCC4=CC(=O)CC[C@]4(C)[C@@]3(F)[C@@H](O)C[C@@]21C	> 10 µM
O=C(O[C@H]1C[C@H]2CC[C@@H](C1)[N+]21CCCC1)C(O)(c1ccccc1)c1ccccc1	> 30 µM
CS(=O)(=O)c1ccc(C2=C(c3ccccc3)C(=O)OC2)cc1	> 30 µM
CN(C)/N=N/c1[nH]cnc1C(N)=O	> 10 µM
CCOc1ccccc1OCC1CNCCO1 (stereo not given)	> 30 µM
CCCC(C)C1(CC)C(=O)NC(=O)NC1=O (stereo not given)	> 10 µM
C[C@H](CSC(=O)c1ccccc1)C(=O)N1C[C@@H](Sc2ccccc2)C[C@H]1C(=O)O	> 10 µM
Clc1ccc2nsnc2c1NC1=NCCN1	> 30 µM
CC(C(=O)O)c1ccc(N2Cc3ccccc3C2=O)cc1 (stereo not given)	> 30 µM
C=CCN1CCCC1CNC(=O)c1cc(S(N)(=O)=O)cc(OC)c1OC (stereo not given) [VERALIPRIDE]	> 30 µM
COc1cccc(C2(O)CCCCC2CN(C)C)c1 (stereo not given)	> 30 µM
Cc1cc(O)c(C(=O)N[C@@H](C(=O)N[C@@H]2C(=O)N3C(C(=O)O)=C(CSc4nnnn4C)CS[C@H]23)c2ccc(O)cc2)cn1 [CEFPIRAMIDE]	> 30 µM
O=C1C(O)=C([C@H]2CC[C@H](c3ccc(Cl)cc3)CC2)C(=O)c2ccccc21	> 30 µM
O=[N+]([O-])O[C@@H]1CO[C@H]2[C@@H]1OC[C@@H]2O [ISOSORBIDE MONONITRATE]	> 30 µM
CC(C)(C)C(=O)Oc1ccc(S(=O)(=O)Nc2ccccc2C(=O)NCC(=O)O)cc1	> 30 µM
Cc1cccc(Nc2ccccc2C(=O)O)c1C	> 10 µM
COc1ccc2c3c1O[C@H]1[C@@H](O)C=C[C@H]4[C@@H](C2)N(C)CC[C@@]341	> 30 µM
Clc1ccc(CCCOCCCN2CCCCC2)cc1	> 30 µM
